- Test system: 648629-189-R-J1-PDC complex spheroids viability;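 also: drug exposure lasted seven days before viability readout; 100% = DMSO vehicle control wells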
- Method Description: Anticancer human tumor 648629-189-R-J1-PDC patient-derived bladder carcinoma cell line growth inhibition [CLK]
- Condition Set: second compound 0.316 µM; first compound 0.00316 µM; stronger effect = lower value
Labelling field: enter 1.0 if recorded viability, T/C is less than 30%. Enter 0.0 if it equals or exceeds that cut-off.

{"columns": ["Compound", "Label Value"],
 "data": [
  ["Cn1ncnc1[C@H]1c2n[nH]c(=O)c3cc(F)cc(c23)N[C@@H]1c1ccc(F)cc1 + CN1CCN(c2cc(C(=O)Nc3cc4cc(-c5cnn(C)c5)ccc4cn3)ccn2)CC1", 0.0],
  ["CCc1c2c(nc3ccc(O)cc13)-c1cc3c(c(=O)n1C2)COC(=O)[C@]3(O)CC + CN1CCN(c2cc(C(=O)Nc3cc4cc(-c5cnn(C)c5)ccc4cn3)ccn2)CC1", 1.0],
  ["COc1c(OCCCN2CCOCC2)ccc2c3n(c(=NC(=O)c4cnc(N)nc4)nc12)CCN3 + CN1CCN(c2cc(C(=O)Nc3cc4cc(-c5cnn(C)c5)ccc4cn3)ccn2)CC1", 0.0],
  ["CCc1c2c(nc3ccc(O)cc13)-c1cc3c(c(=O)n1C2)COC(=O)[C@]3(O)CC + CNC(=O)c1ccc(Nc2nc(OC3CCCC3)c3c(-c4ccc5nc(C)oc5c4)c[nH]c3n2)c(OC)c1", 1.0],
  ["CCN1CCN(Cc2ccc(Nc3ncc(F)c(-c4cc(F)c5nc(C)n(C(C)C)c5c4)n3)nc2)CC1 + CN1CCN(c2cc(C(=O)Nc3cc4cc(-c5cnn(C)c5)ccc4cn3)ccn2)CC1", 0.0]
]}

These measurements were taken from PubChem BioAssay AID2060602.
